# SYSTEM_UNDER_TEST: Gamma-butyrobetaine dioxygenase (Homo sapiens, UniProt O75936)
# Sequence (O75936 whole entry): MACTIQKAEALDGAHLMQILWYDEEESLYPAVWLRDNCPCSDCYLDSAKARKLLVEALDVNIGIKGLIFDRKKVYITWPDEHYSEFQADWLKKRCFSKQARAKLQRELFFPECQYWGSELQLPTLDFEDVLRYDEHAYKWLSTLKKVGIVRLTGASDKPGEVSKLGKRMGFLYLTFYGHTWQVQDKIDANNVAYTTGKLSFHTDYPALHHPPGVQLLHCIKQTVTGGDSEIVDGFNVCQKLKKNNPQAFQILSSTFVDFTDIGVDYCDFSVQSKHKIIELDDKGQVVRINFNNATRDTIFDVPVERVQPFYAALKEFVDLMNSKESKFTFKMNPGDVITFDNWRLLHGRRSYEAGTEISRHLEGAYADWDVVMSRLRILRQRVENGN
# RUN_DESCRIPTION: Inhibition of human BBOX pre-incubated for 25 mins using TBS-protected fluorescein probe and Fe (II) (Fe(NH4)2(SO4)2 salt by fluoride release assay
Please go through the items and note down their IC50.

Task item: Any idea what its IC50 is? The compound is O=c1c2ccccc2[se]n1-c1ccccc1
Reply: 0.72 µM

Task item: Then what about the compound O=[Se](O)c1ccccc1 ?
Reply: 2.6 µM

Task item: Next compound up: O[Se]c1ccccc1
Reply: 17 µM

Task item: Please do the same for CN(C)C(=S)SSC(=S)N(C)C as well.
Reply: 5.8 µM

Task item: Can you handle Cl[Se]c1ccccc1 next?
Reply: 2.2 µM

Task item: Another: c1ccc([Se][Se]c2ccccc2)cc1
Reply: 39 µM

Task item: One more compound: Br[Se]c1ccccc1
Reply: 2.3 µM

---

# SYSTEM_UNDER_TEST: UniProt O75936
# RUN_DESCRIPTION: Binding affinity to human BBOX in presence of Fe(II) by tryptophan fluorescence quenching binding assay
Response field label: string, one of 1 (Kd strictly below 10 µM) or 0.

Task item: Please check: Kd for Cl[Se]c1ccccc1 , strictly under 10 µM or not?
Reply: 1

Task item: Can you handle Br[Se]c1ccccc1 next?
Reply: 0

Task item: O=C(O)CNC(=O)c1nc(Cl)c2ccccc2c1O ?
Reply: 0

Task item: c1ccc([Se][Se]c2ccccc2)cc1 , same question.
Reply: 0

Task item: Moving on to O[Se]c1ccccc1
Reply: 0

Task item: Please do the same for O=[Se](O)c1ccccc1 as well.
Reply: 0

Task item: Proceed to O=c1c2ccccc2[se]n1-c1ccccc1 [EBSELEN]
Reply: 1

Task item: Please give the result for CN(C)C(=S)SSC(=S)N(C)C [THIRAM] too.
Reply: 0

---

Record form. Attribute: IC50. Fill in for each entry.
# SYSTEM_UNDER_TEST: Gamma-butyrobetaine dioxygenase (Homo sapiens, UniProt O75936)
# RUN_DESCRIPTION: Inhibition of human BBOX pre-incubated for 20 mins using TBS-protected fluorescein probe and Fe (II) (Fe(NH4)2(SO4)2 salt by fluoride release assay
Form entry: value (µM) — number only.

Task item: Requested field: IC50. Item: c1ccc([Se][Se]c2ccccc2)cc1
Reply: 42

Task item: Further, for Br[Se]c1ccccc1 ?
Reply: 3

Task item: Input O=c1c2ccccc2[se]n1-c1ccccc1
Reply: 0.83

Task item: Entry to check: O[Se]c1ccccc1
Reply: 19

Task item: Would you mind doing O=[Se](O)c1ccccc1 as well?
Reply: 4.7

Task item: Now the compound CN(C)C(=S)SSC(=S)N(C)C
Reply: 7.9

Task item: Please give the result for Cl[Se]c1ccccc1 too.
Reply: 2.9

Task item: Then what about the compound O=C(O)CNC(=O)c1nc(Cl)c2ccccc2c1O ?
Reply: 32
